# Test system: intracellular proteome of ENR+CD and ENR organoids
# experiment: LC-MS/MS TMT proteomics of ENR+CD versus ENR organoids
# Format: cell-based, C57BL/6 mice
# test.context: up = enriched in ENR+CD, down = enriched in ENR; FDR<0.05 and log fold change cut-off
measured.quantity: change

Q9D9Z1 (protein, UniProt Q9D9Z1 1-312, looked up, full-length) MAAPEAEAQETAFRTTGPPTDSEPRPFPPSSRKFPFESAAADSNEDWAVAAEHYLKGSGENGGWEQPAPGVQPSHPATMASAKTVCDAQPHSMPSCGLPADTQTRATSKLPVKSKEADLLRHLHPGGPEPDVTKVTKSRRENGQVKAAETASRRNLRNSYKPFNKQKPEEELKDKNELLEAVNKQLHQKLTETQGELKDLTQKVELLEKFQDNCLALLESKGLNPGQETLASKQEPTTDHTDSMLLLETLKDELKVFNETAKKQMEELQALKVKLKLKEEESVQFLEQQTLCKDEASDFTIILEEMEQLLEM    down
Q00623 (protein, UniProt Q00623 1-264, looked up, full-length) MKAVVLAVALVFLTGSQAWHVWQQDEPQSQWDKVKDFANVYVDAVKDSGRDYVSQFESSSLGQQLNLNLLENWDTLGSTVSQLQERLGPLTRDFWDNLEKETDWVRQEMNKDLEEVKQKVQPYLDEFQKKWKEDVELYRQKVAPLGAELQESARQKLQELQGRLSPVAEEFRDRMRTHVDSLRTQLAPHSEQMRESLAQRLAELKSNPTLNEYHTRAKTHLKTLGEKARPALEDLRHSLMPMLETLKTQVQSVIDKASETLTAQ    down
